Tested on: Mus musculus
test: Toxicity in BALB/C nude mouse xenografted with human HCT116 cells assessed as reduction in body weight at 2 mg/kg, ip administered as a single dose on 17th day and measured on 30 to 33 days post implantation
Format: organism-based, HCT-116
Parameters: dose 2 mg/kg, route intraperitoneal
reported-conditions: in vivo
measurement-type: Activity

Consider the reported Activity for these compounds:
INPUT: Query: Activity; subject: CN1c2ccccc2C(=O)N2CCc3c([nH]c4c(Cl)cccc34)C21 (stereo unspecified)
OUTPUT: Toxic

INPUT: Now try CN1c2ccc(F)cc2C(=O)N2CCc3c([nH]c4ccc(O)cc34)C21 (stereo unspecified) .
OUTPUT: Non-toxic

INPUT: Let us now turn to CN1c2ccc(N)cc2C(=O)N2CCc3c([nH]c4ccc(O)cc34)C21 (stereo unspecified)
OUTPUT: Non-toxic

INPUT: And CN1c2ccc(Cl)cc2C(=O)N2CCc3c([nH]c4ccc(O)cc34)C21 (stereo unspecified) ?
OUTPUT: Toxic

INPUT: Same read-out for CN1c2ccc(O)cc2C(=O)N2CCc3c([nH]c4ccc(O)cc34)C21 (stereo unspecified) ?
OUTPUT: Toxic

More entries:
INPUT: Which Activity reading was recorded for the compound CN1c2ccccc2C(=O)N2CCc3c([nH]c4ccc(O)cc34)C21 (stereo unspecified) ?
OUTPUT: Non-toxic

====

test: Toxicity in mouse
Assay type: organism-based
reported-conditions: in vivo
measurement-type: LD50 (mg/kg)
Output spec: scalar in mg/kg, unitless text.

INPUT: Can you look up the measured LD50 of CN1c2ccccc2C(=O)N2CCc3c([nH]c4ccccc34)[C@H]21 [EVODIAMINE] for me?
OUTPUT: 77.8

====

tested-system: DNA topoisomerase 1 (Homo sapiens)
test: Inhibition of Top1 assessed as suppression of supercoiled pBR322 DNA relaxation measuring appearance of short DNA fragments at 100 uM incubated for 15 mins by electrophoresis method
Activity calls are given as the source filed them. No cut-off for these calls is given here.
Mark one answer only. Choices: True for active, False for inactive

Solved entries:
INPUT: For this compound, state the assay outcome: CN1c2ccc(F)cc2C(=O)N2CCc3c([nH]c4ccccc34)C21 (stereo not drawn)
OUTPUT: True

INPUT: Likewise for CN1c2ccc(Cl)cc2C(=O)N2CCc3c([nH]c4ccccc34)C21 (stereo not drawn) ?
OUTPUT: True

Next:
INPUT: Give the logged outcome of this assay for the following compound: CN1c2cccc(O)c2C(=O)N2CCc3c([nH]c4ccc(O)cc34)C21 (stereo not drawn)
OUTPUT: True

INPUT: Repeat with CN1c2ccc(Cl)cc2C(=O)N2CCc3c([nH]c4ccc(O)cc34)C21 (stereo not drawn)
OUTPUT: True

INPUT: Field entry: Cc1cccc2c1N(C)C1c3[nH]c4ccccc4c3CCN1C2=O (stereo not drawn)
OUTPUT: True

INPUT: And for CN1c2ccccc2C(=O)N2CCc3c([nH]c4c(Cl)cccc34)C21 (stereo not drawn) ?
OUTPUT: True

INPUT: Entry to check: CN1c2ccc(F)cc2C(=O)N2CCc3c([nH]c4ccc(O)cc34)C21 (stereo not drawn)
OUTPUT: True

INPUT: Can you handle CN1c2ccccc2C(=O)N2CCc3c([nH]c4ccccc34)[C@@H]21 next?
OUTPUT: False

Hello, the source for this data is ChEMBL document CHEMBL2169847, in case you need it.
